Quick list: abundance fitness per entry.
B1: Ankyrin-3, residues 4094 to 4171; numbered along this chain, Q12955 (parent)
chain: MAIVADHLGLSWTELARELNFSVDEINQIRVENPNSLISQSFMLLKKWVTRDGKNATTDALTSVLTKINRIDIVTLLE

variants of: B1; experiment: abundance fitness (aPCA) (normalised: wild type 0, dead -1); higher = more abundant; growth selection in yeast, the domain comes from the species named; conditions: Homo sapiens
Reply with the value as a number alone.

Example entries begin here.
{"columns": ["Variant Designation", "Observed"],
 "data": [
  ["A2D", 0.173],
  ["A60K", -0.083],
  ["R51C", -0.744],
  ["T62A", 0.039],
  ["V74T", -0.142]
]}

Prompt: Any idea what its abundance fitness is? The variant is L44Q
Completion: -0.784

Prompt: Do the same for I71R please
Completion: -0.036

Prompt: Moving on to the next variant: M43D
Completion: 0.028

Prompt: Ok, now L10Y
Completion: -0.104

Prompt: Another variant to look at: L65N
Completion: -0.426

Ref: the Human Domainome abundance scans (Beltran et al. 2025)
